Each entry below carries its reported IC50.
measured-target: ENL(YEATS)-HiBiT (Homo sapiens)
Sequence (Q03111 1-138 limits assumed): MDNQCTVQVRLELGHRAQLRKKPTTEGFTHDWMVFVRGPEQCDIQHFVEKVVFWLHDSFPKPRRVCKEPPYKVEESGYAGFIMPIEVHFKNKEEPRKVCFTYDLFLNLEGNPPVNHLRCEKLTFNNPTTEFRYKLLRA
method-notes: cell-based
Numbers only here, please. The scale is µM.

compound=N#Cc1ccc(-c2cn3cc(C(=O)NC4CCC4)ccc3n2)cc1 outcome_measure=IC50 experimental_result=2.51
compound=O=C(NC1CCC1)c1ccc2nc(-c3cccc(NS(=O)(=O)NCCc4c[nH]cn4)c3)cn2c1 outcome_measure=IC50 experimental_result=8.4

Tell me IC50 reported for Cc1ccc(-c2cn3cc(C(=O)NC(C)C)ccc3n2)cc1
80

Item O=C(NC1CC(CO)C1)c1ccc2nc(-c3ccccc3)cn2c1 (centres unmarked) : provide IC50
25.6

Identify measured IC50 corresponding to O=C(NC1CCC1)c1ccc2nc(-c3cccc(NS(=O)(=O)CCN4CCCCC4)c3)cn2c1
1.24

Value source: patent US20220274980A1
